Please provide measured Emax for the entries that follow.
# targetOfAssay: human FXR (NR1H4) (Homo sapiens (Human))
# Sequence (Q96RI1 whole entry, the tested form may be a part): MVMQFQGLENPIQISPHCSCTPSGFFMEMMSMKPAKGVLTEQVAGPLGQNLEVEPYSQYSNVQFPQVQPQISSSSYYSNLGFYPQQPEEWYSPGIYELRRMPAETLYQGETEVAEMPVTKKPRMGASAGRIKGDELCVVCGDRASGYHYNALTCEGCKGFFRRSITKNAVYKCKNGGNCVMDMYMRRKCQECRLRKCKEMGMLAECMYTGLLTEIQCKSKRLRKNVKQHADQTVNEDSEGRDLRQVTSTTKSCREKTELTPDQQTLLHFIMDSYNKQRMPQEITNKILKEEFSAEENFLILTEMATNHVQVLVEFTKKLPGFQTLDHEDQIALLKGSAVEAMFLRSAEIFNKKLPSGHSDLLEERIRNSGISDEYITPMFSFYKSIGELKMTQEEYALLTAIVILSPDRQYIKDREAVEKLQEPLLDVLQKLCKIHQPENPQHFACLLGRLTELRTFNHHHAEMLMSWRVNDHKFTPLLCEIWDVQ
# testSummary: Human FXR (NR1H4) Assay (Gal4 promoter driven luciferase reporter, Indigo Bioscience kit);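 note: 100% equals the efficacy of CDCA; efficacy normalized to CDCA set as 100%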
# Format: cell-based
# runParameters: read-out: Efficacy (%)
Write it as a number; the unit % goes unstated.

Need Emax, item CC[C@H]1[C@@H](O)[C@@H]2[C@H](CC[C@]3(C)[C@@H]([C@H](C)CCOC(=O)NS(=O)(=O)N4CCCC4)CC[C@@H]23)[C@@]2(C)CC[C@@H](O)C[C@@H]12 [Example 51]
218

Need Emax, item CC[C@H]1[C@@H](O)[C@@H]2[C@H](CC[C@]3(C)[C@@H]([C@H](C)CCOC(=O)NS(=O)(=O)c4ccc(-c5ccccc5)s4)CC[C@@H]23)[C@@]2(C)CC[C@@H](O)C[C@@H]12 [Example 64]
281

Need Emax, item CC[C@H]1[C@@H](O)[C@@H]2[C@H](CC[C@]3(C)[C@@H]([C@H](C)CCCOC(=O)N(C)C)CC[C@@H]23)[C@@]2(C)CC[C@@H](O)C[C@@H]12 [Example 128]
138
